biological target: Cholecystokinin receptor type A (Homo sapiens, UniProt P32238); experiment: Displacement of [125I]CCK-8(SO3) from human CCK1 receptor expressed in human HEK293 cells; assay type: cell-based; details: read-out: Ki
I'd appreciate it if you could supply Ki values for the items below.
Answers are plain numbers, in nM.

Some compounds with recorded Ki:
[[record]]
sample_smiles = "CCCC[C@H](NC(=O)[C@H](Cc1c[nH]c2ccccc12)NC(=O)[C@H](CCCNC(=N)N)NC(=O)[C@@H](Cc1ccc2ccccc2c1)NC(=O)[C@H](Cc1cnc[nH]1)NC(=O)[C@H](Cc1ccccc1)NC(=O)CNC(=O)[C@@H](C)NC(=O)[C@@H](N)Cc1c(C)cc(O)cc1C)C(=O)N[C@@H](CC(=O)O)C(=O)N[C@@H](Cc1ccccc1)C(N)=O"
result_number = 18

[[record]]
sample_smiles = "CCCC[C@H](NC(=O)[C@H](Cc1c[nH]c2ccccc12)NC(=O)[C@H](CCCNC(=N)N)NC(=O)[C@@H](Cc1ccc2ccccc2c1)NC(=O)[C@H](Cc1cnc[nH]1)NC(=O)[C@H](Cc1ccccc1)NC(=O)[C@@H](C)NC(=O)[C@@H](N)Cc1ccc(O)cc1)C(=O)N[C@@H](CC(=O)O)C(=O)N[C@@H](Cc1ccccc1)C(N)=O"
result_number = 1.6


The value of Ki measured for the compound CCCC[C@H](NC(=O)[C@H](Cc1c[nH]c2ccccc12)NC(=O)[C@H](CCCNC(=N)N)NC(=O)[C@@H](Cc1ccccc1)NC(=O)[C@H](Cc1cnc[nH]1)NC(=O)[C@H](Cc1ccccc1)NC(=O)CNC(=O)[C@@H](C)NC(=O)[C@@H](N)Cc1ccc(O)cc1)C(=O)N[C@@H](CC(=O)O)C(=O)N[C@@H](Cc1ccccc1)C(N)=O turned out to be 1400

* * *

Molecular target: Cholecystokinin receptor type A (Homo sapiens, UniProt P32238)
Sequence (P32238 whole entry): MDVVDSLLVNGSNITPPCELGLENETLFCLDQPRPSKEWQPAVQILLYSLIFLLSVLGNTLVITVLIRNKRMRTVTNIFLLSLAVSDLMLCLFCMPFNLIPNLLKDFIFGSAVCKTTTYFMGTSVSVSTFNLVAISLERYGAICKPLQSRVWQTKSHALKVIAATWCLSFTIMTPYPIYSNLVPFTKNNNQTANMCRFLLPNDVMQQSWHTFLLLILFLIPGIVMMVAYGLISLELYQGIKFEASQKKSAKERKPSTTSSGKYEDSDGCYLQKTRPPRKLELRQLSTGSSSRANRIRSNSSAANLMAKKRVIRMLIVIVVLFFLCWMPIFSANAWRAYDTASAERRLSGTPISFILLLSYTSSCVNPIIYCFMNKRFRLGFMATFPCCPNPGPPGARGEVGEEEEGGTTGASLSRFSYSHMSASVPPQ
Test: Displacement of [125I]CCK-8(SO3) from human CCK1 receptor expressed in human HEK293 cells
Assay type: cell-based
Settings: read-out: Ki
parameter_measured: Ki (nM)
Give bare numbers, in nM.

Count: 4. Required value per item: Ki.
1. CCCC[C@H](NC(=O)[C@H](Cc1c[nH]c2ccccc12)NC(=O)[C@H](CCCNC(=N)N)NC(=O)[C@@H](Cc1ccc2ccccc2c1)NC(=O)[C@H](Cc1cnc[nH]1)NC(=O)[C@H](Cc1ccccc1)NC(=O)CNC(=O)[C@@H](C)NC(=O)[C@@H](N)Cc1ccc(O)cc1)C(=O)N[C@@H](CC(=O)O)C(=O)N[C@@H](Cc1ccccc1)C(N)=O
2. CCCC[C@H](NC(=O)[C@H](Cc1c[nH]c2ccccc12)NC(=O)[C@H](CCCNC(=N)N)NC(=O)[C@@H](Cc1ccc2ccccc2c1)NC(=O)[C@H](Cc1cnc[nH]1)NC(=O)[C@@H]1Cc2ccccc2CN1C(=O)C(N)Cc1c(C)cc(O)cc1C)C(=O)N[C@@H](CC(=O)O)C(=O)N[C@@H](Cc1ccccc1)C(N)=O (single isomer, unassigned)
3. CCCC[C@H](NC(=O)[C@H](Cc1c[nH]c2ccccc12)NC(=O)[C@H](CCCN=C(N)N)NC(=O)[C@@H](Cc1ccc2ccccc2c1)NC(=O)[C@H](Cc1cnc[nH]1)NC(=O)[C@H]1Cc2ccccc2CN1C(=O)[C@@H](N)Cc1c(C)cc(O)cc1C)C(=O)N[C@@H](CC(=O)O)C(=O)N[C@@H](Cc1ccccc1)C(N)=O
4. N=C(N)NCCC[C@@H]1NC(=O)[C@H](Cc2ccc(Cl)cc2)NC(=O)[C@H](Cc2cnc[nH]2)NC(=O)CNC(=O)[C@H](NC(=O)[C@@H](N)Cc2ccc(O)cc2)CC(=O)NCCCC[C@@H](C(=O)N[C@@H](CC(=O)O)C(=O)N[C@H](Cc2ccccc2)C(N)=O)NC(=O)[C@H](Cc2cc3ccccc3[nH]2)NC1=O

1. 9
2. 15
3. 32
4. 560

* * *

target: Mu-type opioid receptor (Rattus norvegicus)
Sequence (P33535 whole entry): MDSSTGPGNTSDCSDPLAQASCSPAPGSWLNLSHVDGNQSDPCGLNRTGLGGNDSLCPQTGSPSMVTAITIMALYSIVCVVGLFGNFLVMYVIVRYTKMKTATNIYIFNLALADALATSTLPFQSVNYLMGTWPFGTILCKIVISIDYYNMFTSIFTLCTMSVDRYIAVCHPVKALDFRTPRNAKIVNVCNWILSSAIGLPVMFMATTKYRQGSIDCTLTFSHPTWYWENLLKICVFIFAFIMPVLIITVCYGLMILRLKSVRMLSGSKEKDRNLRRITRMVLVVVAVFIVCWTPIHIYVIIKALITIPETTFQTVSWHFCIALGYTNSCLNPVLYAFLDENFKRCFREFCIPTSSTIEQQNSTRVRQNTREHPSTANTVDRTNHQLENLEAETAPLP
parameter_measured: pKi
Numbers only, as −log10 of the molar value.

[[record]]
sample_smiles = "CCCC[C@H](NC(=O)[C@H](Cc1c[nH]c2ccccc12)NC(=O)[C@H](CCCNC(=N)N)NC(=O)[C@@H](Cc1ccccc1)NC(=O)[C@H](Cc1cnc[nH]1)NC(=O)[C@H](Cc1ccccc1)NC(=O)CNC(=O)[C@@H](C)NC(=O)[C@@H](N)Cc1ccc(O)cc1)C(=O)N[C@@H](CC(=O)O)C(=O)N[C@@H](Cc1ccccc1)C(N)=O"
result_number = 7.85

[[record]]
sample_smiles = "CCCC[C@H](NC(=O)[C@H](Cc1c[nH]c2ccccc12)NC(=O)[C@H](CCCN=C(N)N)NC(=O)[C@@H](Cc1ccc2ccccc2c1)NC(=O)[C@H](Cc1cnc[nH]1)NC(=O)[C@H](Cc1ccccc1)NC(=O)[C@@H](C)NC(=O)[C@@H](N)Cc1c(C)cc(O)cc1C)C(=O)N[C@@H](CC(=O)O)C(=O)N[C@@H](Cc1ccccc1)C(N)=O"
result_number = 8.31

[[record]]
sample_smiles = "N=C(N)NCCC[C@@H]1NC(=O)[C@H](Cc2ccc(Cl)cc2)NC(=O)[C@H](Cc2cnc[nH]2)NC(=O)CNC(=O)[C@H](NC(=O)[C@@H](N)Cc2ccc(O)cc2)CC(=O)NCCCC[C@@H](C(=O)N[C@@H](CC(=O)O)C(=O)N[C@H](Cc2ccccc2)C(N)=O)NC(=O)[C@H](Cc2cc3ccccc3[nH]2)NC1=O"
result_number = 5.68


List pKi for every entry below, keeping the order given.
1. Cc1cc(O)cc(C)c1C[C@H](N)C(=O)N1CC(=O)N[C@@H](Cc2cnc[nH]2)C(=O)N[C@H](Cc2ccc3ccccc3c2)C(=O)N[C@@H](CCCNC(=N)N)C(=O)N[C@@H](Cc2c[nH]c3ccccc23)C(=O)N[C@H](C(=O)N[C@@H](CC(=O)O)C(=O)N[C@@H](Cc2ccccc2)C(N)=O)CSSC[C@@H](N)C1=O
2. CCCC[C@H](NC(=O)[C@H](Cc1c[nH]c2ccccc12)NC(=O)[C@H](CCCNC(=N)N)NC(=O)[C@@H](Cc1ccc2ccccc2c1)NC(=O)[C@H](Cc1cnc[nH]1)NC(=O)[C@H](Cc1ccccc1)NC(=O)CNC(=O)[C@@H](C)NC(=O)[C@@H](N)Cc1c(C)cc(O)cc1C)C(=O)N[C@@H](CC(=O)O)C(=O)N[C@@H](Cc1ccccc1)C(N)=O
3. CCCC[C@H](NC(=O)[C@H](Cc1c[nH]c2ccccc12)NC(=O)[C@H](CCCNC(=N)N)NC(=O)[C@@H](Cc1ccc2ccccc2c1)NC(=O)[C@H](Cc1cnc[nH]1)NC(=O)[C@H](Cc1ccccc1)NC(=O)[C@@H](C)NC(=O)[C@@H](N)Cc1ccc(O)cc1)C(=O)N[C@@H](CC(=O)O)C(=O)N[C@@H](Cc1ccccc1)C(N)=O

1: 8.23; 2: 9.89; 3: 6.60

* * *

Exercise: for every item that follows, state its recorded pKi.
biological target: Mu-type opioid receptor (Rattus norvegicus)
One number for each entry, as −log10 of the molar value.

[[record]]
compound = "CCCC[C@H](NC(=O)[C@H](Cc1c[nH]c2ccccc12)NC(=O)[C@H](CCCN=C(N)N)NC(=O)[C@@H](Cc1ccc2ccccc2c1)NC(=O)[C@H](Cc1cnc[nH]1)NC(=O)[C@H]1Cc2ccccc2CN1C(=O)[C@@H](N)Cc1c(C)cc(O)cc1C)C(=O)N[C@@H](CC(=O)O)C(=O)N[C@@H](Cc1ccccc1)C(N)=O"
tested_target = "Mu-type opioid receptor (Rattus norvegicus)"
result_number = 7.74


Here are 2 compounds. What values of pKi were reported for them?
1. CCCC[C@H](NC(=O)[C@H](Cc1c[nH]c2ccccc12)NC(=O)[C@H](CCCNC(=N)N)NC(=O)[C@@H](Cc1ccc2ccccc2c1)NC(=O)[C@H](Cc1cnc[nH]1)NC(=O)[C@@H]1Cc2ccccc2CN1C(=O)C(N)Cc1c(C)cc(O)cc1C)C(=O)N[C@@H](CC(=O)O)C(=O)N[C@@H](Cc1ccccc1)C(N)=O (single isomer, unassigned)
2. CCCC[C@H](NC(=O)[C@H](Cc1c[nH]c2ccccc12)NC(=O)[C@H](CCCNC(=N)N)NC(=O)[C@@H](Cc1ccc2ccccc2c1)NC(=O)[C@H](Cc1cnc[nH]1)NC(=O)[C@H](Cc1ccccc1)NC(=O)CNC(=O)[C@@H](C)NC(=O)[C@@H](N)Cc1ccc(O)cc1)C(=O)N[C@@H](CC(=O)O)C(=O)N[C@@H](Cc1ccccc1)C(N)=O

1. 7.33
2. 9.16
